Test system: Saccharomyces cerevisiae
Test: protein stability index of tFT-peptide fusion (C-terminal peptide) (PSI (0-1 scale)); higher = more stable (slower turnover)
Details: genetic background: wild type; temperature: 30 C
metric.name: protein stability index
Form rule: numeric answer, no unit written next to it.

Q: Give protein stability index; test system Saccharomyces cerevisiae; sequence PVLRPPPPLSPP
Result: 0.734

Q: State the measured protein stability index (Saccharomyces cerevisiae) of GLYMCSVGCWFR
Result: 0.408

Q: Report value only: protein stability index, Saccharomyces cerevisiae, CIITHSQNKLNT
Result: 0.724

Q: Supply protein stability index measured with Saccharomyces cerevisiae for FPLLAPAVSPHT .
Result: 0.662

Q: Provide Saccharomyces cerevisiae protein stability index reading for SPPRSPPDFVPF .
Result: 0.684

Q: Write protein stability index of IPLPPHLTPPST ; system used: Saccharomyces cerevisiae
Result: 0.677

Q: Look up and report protein stability index, with Saccharomyces cerevisiae as system, for DPRPRLNCSYEH
Result: 0.68

Q: Give Saccharomyces cerevisiae protein stability index for the following sequence: LTPTLLTNPQAD
Result: 0.678

Q: Look up Saccharomyces cerevisiae data: protein stability index of FGGGGRGGLLWC , then report it.
Result: 0.764

Q: Provide measured protein stability index on Saccharomyces cerevisiae for LSPFGTLLNAPP please.
Result: 0.782

Q: Answer with protein stability index of ERAKMYPKKKIR measured for Saccharomyces cerevisiae.
Result: 0.64

Q: State the measured protein stability index (Saccharomyces cerevisiae) of RPRLQNLSRSNV
Result: 0.74

Q: With Saccharomyces cerevisiae as the test system, provide measured protein stability index for this sequence: EHKSPYGTLRFP
Result: 0.777

Q: Please report the measured protein stability index for VMFACAGVETRR tested on Saccharomyces cerevisiae.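 Further: PSI is a weighted mean of sequencing reads over stability bins, variants kept only with over 10 reads, mCherry proximal and sfGFP distal, peptide attached via GGGS linker.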
Result: 0.745
